- Test system: LOX IMVI melanoma
- PROTOCOL_DETAILS: NCI tumour cell line growth inhibition, 48 h
TGI reference

Answered examples (3):
Cc1ccccc1S(=O)(=O)Nn1cnc2ccc(S(=O)(=O)Nc3ccc(Cl)cc3)cc2c1=O = > 100 µM
Cc1ccc(S(=O)(=O)NNCNC(=O)c2ccccc2)cc1 = > 100 µM
Nn1c(Cc2ccc([N+](=O)[O-])cc2)n[nH]c1=O = > 100 µM

Ask: I'd like to know its TGI. The molecule in question is "COI1NC(=O)c2ccccc21"
Reply: > 100 µM

Ask: Query "CN(C)c1ccc(/C=C/c2cc[n+](C)c(/C=C/c3ccc(N(C)C)cc3)c2)cc1" next
Reply: 1.45 µM

Ask: Query "CC(=O)OCc1cc2ccccc2nc1C(Br)(Br)Br" next
Reply: 29.2 µM

* * *

TGI reference
- System: HCC-2998 colon
- PROTOCOL_DETAILS: NCI tumour cell line growth inhibition, 48 h

CCOc1ccc2nc(NC(=O)C(=O)C(c3cnc4ccccc4n3)[N+](=O)[O-])sc2c1 (configuration not stated) = > 100 µM
O=C1CSC(c2cccc([N+](=O)[O-])c2)N1c1ccc(-n2c(-c3ccccc3)nc3ccccc3c2=O)cc1 (configuration not stated) = > 100 µM

Ask: I'd like to know its TGI. The compound in question is Cc1cc2c([nH]c3ccccc32)c2c1OC(C)(C)C1C3CC(C)(C)Oc4c(C)cc5c6ccccc6n(c5c43)C21 (configuration not stated)
Reply: > 100 µM

Ask: Query NCCCNCCCCNC(=O)C(O)NC(=O)CCCCCCN=C(N)N (configuration not stated) next
Reply: > 4260 µM

Ask: Query "C=C(Br)CNC(=O)CCC(=O)NCC(=C)Br" next
Reply: > 100 µM

Ask: Query "CC(=O)c1cc2ccccc2oc1=O" next
Reply: > 100 µM

Ask: Query "CN(C)CC/[N+]([O-])=C(/c1ccccc1)C12CC3CC(CC(C3)C1)C2" next
Reply: 37.6 µM

Ask: Query "O=Cc1c(O)c(C(=O)Nc2ccc3[nH]c(=O)[nH]c3c2)cc2ccccc12" next
Reply: > 100 µM

Ask: Query "Cc1ccccc1S(=O)(=O)Nn1cnc2ccc(S(=O)(=O)Nc3ccc(Cl)cc3)cc2c1=O" next
Reply: > 100 µM

Ask: Query "C[C@@H]1CC[C@@H]2[C@@H](C1)O[C@@H]([C@H](C)OCc1ccccc1)SC2(C)C" next
Reply: 31.8 µM

* * *

TGI reference
- Tested on: RXF 393 renal
- PROTOCOL_DETAILS: NCI tumour cell line growth inhibition, 48 h

Answered examples (4):
Cc1ccc(S(=O)(=O)NNCNC(=O)c2ccccc2)cc1 = > 100 µM
CCOC(=O)c1ccc(N=c2sc3ccccc3nc2Nc2ccc(C(=O)OCC)cc2)cc1 = > 100 µM
COC(C)(C)C/C=C/C(C)=C/C=C/C(C)=C\C=C\C(C)=C\C=C\C=C(C)\C=C\C=C(C)\C=C\C=C(C)\C=C\CC(C)(C)OC = > 150 µg/mL
C(=C\c1ccco1)/c1cccc(/C=C/c2ccco2)n1 = > 50 µM

Ask: I'd like to know its TGI. The compound in question is CC(=O)Nc1ccc(C2SCc3nc4ccccc4n32)cc1 (stereo not given)
Reply: > 100 µM

* * *

TGI reference
- System: HCC-2998 colon
- PROTOCOL_DETAILS: NCI tumour cell line growth inhibition, 48 h

Answered examples (10):
Cc1ccc(Cl)cc1NC(=O)c1sc2nc3c(cc2c1N)C(=O)CCC3 = > 100 µM
N#Cc1ccc(-n2c3ccccc3c3ccc4c(c32)C(=O)C=CC4=O)cc1 = 18.3 µM
CN1C(=O)C2C(C1=O)C1(O)c3ccccc3C2(N)c2ccccc21 (configuration not stated) = > 100 µM
Cc1cn(-c2cc(NC(=O)c3ccc(C)c(Nc4nccc(-c5cccnc5)n4)c3)cc(C(F)(F)F)c2)cn1 = > 65 µM
C/C(=C\c1csc(C)n1)[C@@H]1C[C@@H]2O[C@]2(C)CCC[C@H](C)[C@H](O)[C@@H](C)C(=O)C(C)(C)[C@@H](O)CC(=O)O1 = < 0.0001 µM
O=C1C(=O)c2cccnc2-c2ncccc21 = 2.92 µM
O=C(Nc1nc(C23CC4CC(CC(C4)C2)C3)cs1)c1cc2ccccc2oc1=O = > 100 µM
CCN1CCN(CC(=O)N2c3cccc4cccc(c34)N(C(=O)CN3CCN(CC)CC3)C2c2cn(-c3ccccc3)nc2-c2cccc([N+](=O)[O-])c2)CC1 = 3.43 µM
COc1ccc2c(c1)CCc1c-2n(CCN2CCCCC2)c2ccc(OC)cc12 = > 100 µM
COc1cc2c(cc1OC)C13CCN4CC5CCOC6CC(=O)N2C1C6C5CC43 (configuration not stated) = > 100 µM

Ask: Entry "Cc1ccnc(NC(NC(=O)c2ccccc2)(C(F)(F)F)C(F)(F)F)c1" , system HCC-2998 colon: what TGI was measured?
Reply: > 100 µM

Ask: Query "CN(C)c1ccc(/C=C/c2cc[n+](C)c(/C=C/c3ccc(N(C)C)cc3)c2)cc1" next
Reply: 1.97 µM
